system: Wistar rats; experiment: Anti-inflammatory activity, carrageenin induced paw edema (plethysmometer); assay type: in vivo; conditions: 3 HR after carrageenan; doses as E46
Quick reference: % Increase in Paw volume 3 HR of the listed items.
Reply with just the number (in %).

INSERT INTO results (molecule, observable, unit_name, value_measured) VALUES
  ('OC(CNc1ccccn1)c1ccccc1 (racemic) [Phen 3, 2-(β-hydroxyphenethylamino) pyridine, reference compound]', '% Increase in Paw volume 3 HR', '%', 61.40),
  ('COc1ccc2c(c1)c(CC(=O)O)c(C)n2C(=O)c1ccc(Cl)cc1 [Indomethacin]', '% Increase in Paw volume 3 HR', '%', 41.42),
  ('O=C(O)C(=O)O.O[C@@H](CNc1ccccn1)c1ccccc1 [Phen 4, (R)-Phenyramidol Oxalate]', '% Increase in Paw volume 3 HR', '%', 68.36),
  ('O=C(O)C(=O)O.O[C@H](CNc1ccccn1)c1ccccc1 [Phen 2, (S)-Phenyramidol Oxalate]', '% Increase in Paw volume 3 HR', '%', 66.59);

Quickly give me recorded % Increase in Paw volume 3 HR for O=C(O)Cc1ccccc1Nc1c(Cl)cccc1Cl [Diclofenac, reference compound]
43.03

###

tested on: rats; test: Anti-arthritic activity, thickness of joint of right paw after injection of formalin; type: in vivo; details: 24 hr after formalin; doses as E38
Observable: Thickness of Joint (in cm) 24 hr
Reply with just the number (in cm).

Consider the worked cases shown below.
INSERT INTO measurements (molecule, unit_name, value_measured) VALUES
  ('O=C(O)Cc1ccccc1Nc1c(Cl)cccc1Cl [Diclofenac, reference compound]', 'cm', 0.54),
  ('O=C(O)C(=O)O.O[C@@H](CNc1ccccn1)c1ccccc1 [Phen 4, (R)-Phenyramidol Oxalate]', 'cm', 0.55),
  ('OC(CNc1ccccn1)c1ccccc1 (racemic) [Phen 3, 2-(β-hydroxyphenethylamino) pyridine, reference compound]', 'cm', 0.52);

Continue with the next molecule.
Quickly give me recorded Thickness of Joint (in cm) 24 hr for O=C(O)C(=O)O.O[C@H](CNc1ccccn1)c1ccccc1 [Phen 2, (S)-Phenyramidol Oxalate]
0.54

###

Quick reference: % Increase in Paw volume 1 HR of the listed items.
Tested on: Wistar rats
Test: Anti-inflammatory activity, carrageenin induced paw edema (plethysmometer)
Type: in vivo
Details: 1 HR after carrageenan; oral; racemate 2400 mg, isomers 1200 mg human daily dose extrapolated to rats; Indomethacin 15 mg/kg, diclofenac 10 mg/kg
Experimental: Further, the investigations were carried out to determine the anti-inflammatory activities of the molecule of the present invention. Wistar rats weighing between 160-210 gm were divided into 6 groups of 10 animals each. […] The paw volume of the mice was measured by measuring the displace fluid in other hand of plethysmometer. […] The antiinflammatory activity was assessed plethysmographically using following time points after the administration of carrageenan, 1 hr, 2 hrs, 3 hrs and 5 hrs.
Reply with just the number (in %).

Consider the worked cases shown below.
INSERT INTO results (compound, target, observable, value_measured) VALUES
  ('O=C(O)C(=O)O.O[C@H](CNc1ccccn1)c1ccccc1 [Phen 2, (S)-Phenyramidol Oxalate]', 'Wistar rats', '% Increase in Paw volume 1 HR', 25.82),
  ('O=C(O)C(=O)O.O[C@@H](CNc1ccccn1)c1ccccc1 [Phen 4, (R)-Phenyramidol Oxalate]', 'Wistar rats', '% Increase in Paw volume 1 HR', 25.37),
  ('COc1ccc2c(c1)c(CC(=O)O)c(C)n2C(=O)c1ccc(Cl)cc1 [Indomethacin]', 'Wistar rats', '% Increase in Paw volume 1 HR', 18.58),
  ('OC(CNc1ccccn1)c1ccccc1 (racemic) [Phen 3, 2-(β-hydroxyphenethylamino) pyridine, reference compound]', 'Wistar rats', '% Increase in Paw volume 1 HR', 24.15);

Continue with the next compound.
State recorded % Increase in Paw volume 1 HR with Wistar rats, entry O=C(O)Cc1ccccc1Nc1c(Cl)cccc1Cl [Diclofenac, reference compound] , no comment.
15.77

###

tested on: swiss albino mice; assay: Analgesic activity, acetic acid induced writhing method; assay type: in vivo; conditions: Table 4; oral; writhes counted 15 minutes; Phen3 human daily dose 2400 mg, Phen2 and Phen 4 1200 mg extrapolated to mice; Diclofenac and Pentazocine 2 mg/kg
Marks after values point to notes of the source that are not given here.
Quick reference: Average no. of writhes of the listed items.

Consider the worked cases shown below.
INSERT INTO measurements (compound, value_measured) VALUES
  ('OC(CNc1ccccn1)c1ccccc1 (racemic) [Phen 3, 2-(β-hydroxyphenethylamino) pyridine, reference compound]', '3.54 ± 3.95*'),
  ('O=C(O)C(=O)O.O[C@H](CNc1ccccn1)c1ccccc1 [Phen 2, (S)-Phenyramidol Oxalate]', '13.08 ± 9.93*'),
  ('O=C(O)Cc1ccccc1Nc1c(Cl)cccc1Cl [Diclofenac, reference compound]', '4.08 ± 6.32*');

Quickly give me recorded Average no. of writhes for CC(C)=CCN1CCC2(C)c3cc(O)ccc3CC1C2C (centres unmarked) [Pentazocine]
10.62 ± 9.47*

Quickly give me recorded Average no. of writhes for O=C(O)C(=O)O.O[C@@H](CNc1ccccn1)c1ccccc1 [Phen 4, (R)-Phenyramidol Oxalate]
12.08 ± 4.21*
